biological target: human IgG (Chugai Pharmaceutical Co., Ltd.) (human); experiment: SPR, BIAcore T200, IgG immobilised; 1:1 binding fit
Bridges are numbered along the chain shown (N, C = ends). Primed or numbered codes have the meaning given here. The star is where a group is joined. Biotin = O=C1N[C@H]2[C@H](CS[C@H]2CCCCC(=O)*)N1; PEG4′ = amino-PEG4 spacer
experimental_endpoint: Kd

I'd like to know its Kd. The binder in question is {Biotin-PEG4′}-GPDCAYHRGELVWCTFH-NH2 (disulfide 4-14) [Type I IgG-binding peptide …-NH2] 9.1 nM
